Every entry's value here was drawn from patent US10125100B2.

assayOverview: Pharmacokinetics and total colon distribution after oral administration
Type: in vivo
testSettings: male, C57BL/6, mouse, total colon; mice, oral 5 mg/kg, dosed compound measured, 0.5 h; read-out: total colon level
assayReadout: concentration at 0.5 h (ng/g)
Unit ng/g implied. Number only.

(Q) # concentration at 0.5 h lookup, item COc1cc(Nc2cc(Oc3ccc(NC(=O)Nc4cc(C(C)(C)C)cc(NS(C)(=O)=O)c4OC)c4ccccc34)ccn2)ccc1C(=O)NCCOCCOCCOP(=O)(O)O
(A) 0

###

assayOverview: Pharmacokinetics and total colon distribution after oral administration
Format: in vivo
testSettings: male, C57BL/6, mouse, blood; mice, oral 5 mg/kg, dosed compound measured, 0.5 h; read-out: Mean blood concentration
assayReadout: concentration at 0.5 h (ng/mL)
Unit ng/mL implied. Number only.

(Q) # concentration at 0.5 h lookup, item COc1cc(Nc2cc(Oc3ccc(NC(=O)Nc4cc(C(C)(C)C)cc(NS(C)(=O)=O)c4OC)c4ccccc34)ccn2)ccc1C(=O)NCCOCCOCCOP(=O)(O)O
(A) 0

###

Test system: Jurkat cells
assayOverview: (r) Cell cytotoxicity assay
Format: cell-based, human
testSettings: 20 μg/mL, 24 hours
Classify as follows. Reported % Viability at 20 μg/mL greater than or equal to 60%: t. Reported % Viability at 20 μg/mL below: f.

See these solved cases before continuing.
COc1cc(Nc2cc(Oc3ccc(NC(=O)Nc4cc(C(C)(C)C)cc(NS(C)(=O)=O)c4OC)c4ccccc34)ccn2)ccc1C(=O)NC(CO)(CO)CO    f
COc1cc(Nc2cc(Oc3ccc(NC(=O)Nc4cc(C(C)(C)C)cc(NC(=O)CO)c4OC)c4ccccc34)ccn2)ccc1C(=O)NCCN1CC[S+]([O-])CC1    f
COc1cc(Nc2cc(Oc3ccc(NC(=O)Nc4cc(C(C)(C)C)cc(NS(C)(=O)=O)c4OC)c4ccccc34)ccn2)ccc1C(=O)NCCN1CCN(C(C)C)CC1    f

(Q) Please indicate if the recorded % Viability at 20 μg/mL for C#Cc1cc(Nc2cc(Oc3ccc(NC(=O)Nc4cc(C(C)(C)C)cc(NS(C)(=O)=O)c4OC)c4ccccc34)ccn2)ccc1C(=O)NCCN1CCOCC1 meets or exceeds 60%.
(A) t

(Q) Moving on to the next compound: COc1cc(Nc2cc(Oc3ccc(NC(=O)Nc4cc(C(C)(C)C)cc(NS(C)(=O)=O)c4OC)c4ccccc34)ccn2)ccc1C(=O)N[C@H]1C(O)O[C@H](CO)[C@@H](O)[C@@H]1O (stereo partly drawn)
(A) t

(Q) Moving on to the next compound: COc1cc(Nc2cc(Oc3ccc(NC(=O)Nc4cc(C(C)(C)C)cc(NS(C)(=O)=O)c4OC)c4ccccc34)ccn2)ccc1C(=O)NCCC1CCNCC1
(A) f

###

assayOverview: Pharmacokinetics and total colon distribution after oral administration
Type: in vivo
testSettings: male, C57BL/6, mouse, blood; mice, oral 5 mg/kg, dosed compound measured, 6 h; read-out: Mean blood concentration
assayReadout: concentration at 6 h (ng/mL)
Unit ng/mL implied. Number only.

(Q) # concentration at 6 h lookup, item COc1cc(Nc2cc(Oc3ccc(NC(=O)Nc4cc(C(C)(C)C)cc(NS(C)(=O)=O)c4OC)c4ccccc34)ccn2)ccc1C(=O)NCCOCCOCCOP(=O)(O)O [Example 19]
(A) 0

###

assayOverview: Pharmacokinetics and total colon distribution after oral administration
Format: in vivo
testSettings: male, C57BL/6, mouse, whole blood; mice, Ex. 36 measured after oral 5 mg/kg of Ex. 47 (Na salt), 12 h; read-out: Mean blood concentration
assayReadout: concentration at 12 h
Provide a numeric answer, followed by its unit.

(Q) # concentration at 12 h lookup, item COc1cc(Nc2cc(Oc3ccc(NC(=O)Nc4cc(C(C)(C)C)cc(NS(C)(=O)=O)c4OC)c4ccccc34)ccn2)cc(OC)c1C(=O)NCCOCCOCCO [Example 36]
(A) 0 ng/mL
